Tested on: renal cancer cells
assay_notes: Sulforhodamine B total protein content assay, renal cancer cell lines (NCI)
Type: cell-based
measurement_conditions: Homo sapiens; median over seven renal cancer cell lines
quantity: IC50 (µM)
Provide only the numeric value, understood in µM.

[ask] Find the recorded IC50 belonging to Oc1ccc(OCCN(CCOc2ccc(O)cc2)c2ccccc2)cc1 and report it.
[reply] 1.8

* * *

Test system: SN12C
assay_notes: Sulforhodamine B total protein content assay, SN12C
Format: cell-based
measurement_conditions: Homo sapiens; SN12C renal cancer cells
quantity: IC50 (µM)
Provide only the numeric value, understood in µM.

[ask] Find the recorded IC50 belonging to Oc1ccc(OCCN(CCOc2ccc(O)cc2)c2ccccc2)cc1 and report it.
[reply] 21

Reference source for all entries: patent US9394233B2
